Data origin: patent US20250018014A1

- Assay Target: T1, C-terminal domain-deleted human Regnase-1 (amino acids 1 to 546) with N-terminal FLAG tag and C-terminal BirA … (human, UniProt Q5D1E8 1-546)
- T1 sequence: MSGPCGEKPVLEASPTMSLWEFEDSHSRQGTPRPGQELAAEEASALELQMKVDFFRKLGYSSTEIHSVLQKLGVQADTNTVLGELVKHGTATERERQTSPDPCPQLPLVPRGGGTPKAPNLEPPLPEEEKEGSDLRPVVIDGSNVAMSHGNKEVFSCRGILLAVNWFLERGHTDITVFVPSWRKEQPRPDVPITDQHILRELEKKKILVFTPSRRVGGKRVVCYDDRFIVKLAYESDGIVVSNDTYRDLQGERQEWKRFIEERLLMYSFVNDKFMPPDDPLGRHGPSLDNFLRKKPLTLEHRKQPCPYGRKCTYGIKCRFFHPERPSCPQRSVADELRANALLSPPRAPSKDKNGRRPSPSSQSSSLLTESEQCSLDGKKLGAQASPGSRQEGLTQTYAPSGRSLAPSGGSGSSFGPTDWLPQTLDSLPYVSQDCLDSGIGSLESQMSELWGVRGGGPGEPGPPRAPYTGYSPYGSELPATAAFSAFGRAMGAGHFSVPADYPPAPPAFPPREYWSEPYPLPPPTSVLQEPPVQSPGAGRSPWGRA
- Protocol Description: cell-based or functional assay
Positions of bridges follow the written chain, without caps; N, C: chain ends. Non-standard residues stand in square brackets, D forms with d. *: point of attachment. NMeA = CN[C@@H](C)C(=O)O; Pyrrolidide = C1CCN(*)C1
50% inhibition concentration, Regnase-1 phosphorylation by TBK1 (AlphaScreen) overview
Metric Name: 50% inhibition concentration, Regnase-1 phosphorylation by TBK1 (AlphaScreen) (µM)

# Binder, Recorded Measurement
rows = [
    ("[NMeA]YIWDFFGDLD-Pyrrolidide (lactam N-11) [PP4]", 44.9),
    ("XVFYKIWYNWD (HELM PEPTIDE1{[meA].V.F.Y.K.I.W.Y.N.W.D.[C1CCN([*:1])C1]}$PEPTIDE1,PEPTIDE1,1:R1-11:R3$$$V2.0; SMILES CC[C@H](C)[C@@H]1NC(=O)[C@H](CCCCN)NC(=O)[C@H](Cc2ccc(O)cc2)NC(=O)[C@H](Cc2ccccc2)NC(=O)[C@H](C(C)C)NC(=O)[C@H](C)N(C)C(=O)C[C@@H](C(=O)N2CCCC2)NC(=O)[C@H](Cc2c[nH]c3ccccc23)NC(=O)[C@H](CC(N)=O)NC(=O)[C@H](Cc2ccc(O)cc2)NC(=O)[C@H](Cc2c[nH]c3ccccc23)NC1=O) [PP19]", 4.6),
    ("XNFSNSWYNIWD (HELM PEPTIDE1{[meA].N.F.S.N.S.W.Y.N.I.W.D.[C1CCN([*:1])C1]}$PEPTIDE1,PEPTIDE1,1:R1-12:R3$$$V2.0; SMILES CC[C@H](C)[C@@H]1NC(=O)[C@H](CC(N)=O)NC(=O)[C@H](Cc2ccc(O)cc2)NC(=O)[C@H](Cc2c[nH]c3ccccc23)NC(=O)[C@H](CO)NC(=O)[C@H](CC(N)=O)NC(=O)[C@H](CO)NC(=O)[C@H](Cc2ccccc2)NC(=O)[C@H](CC(N)=O)NC(=O)[C@H](C)N(C)C(=O)C[C@@H](C(=O)N2CCCC2)NC(=O)[C@H](Cc2c[nH]c3ccccc23)NC1=O) [PP16]", 38.1),
    ("XNSWYKIWGLD (HELM PEPTIDE1{[meA].N.S.W.Y.K.I.W.G.L.D.[C1CCN([*:1])C1]}$PEPTIDE1,PEPTIDE1,1:R1-11:R3$$$V2.0; SMILES CC[C@H](C)[C@@H]1NC(=O)[C@H](CCCCN)NC(=O)[C@H](Cc2ccc(O)cc2)NC(=O)[C@H](Cc2c[nH]c3ccccc23)NC(=O)[C@H](CO)NC(=O)[C@H](CC(N)=O)NC(=O)[C@H](C)N(C)C(=O)C[C@@H](C(=O)N2CCCC2)NC(=O)[C@H](CC(C)C)NC(=O)CNC(=O)[C@H](Cc2c[nH]c3ccccc23)NC1=O) [PP21]", 11.7),
    ("XGYANSWYNIWD (HELM PEPTIDE1{[meA].G.Y.A.N.S.W.Y.N.I.W.D.[C1CCN([*:1])C1]}$PEPTIDE1,PEPTIDE1,1:R1-12:R3$$$V2.0; SMILES CC[C@H](C)[C@@H]1NC(=O)[C@H](CC(N)=O)NC(=O)[C@H](Cc2ccc(O)cc2)NC(=O)[C@H](Cc2c[nH]c3ccccc23)NC(=O)[C@H](CO)NC(=O)[C@H](CC(N)=O)NC(=O)[C@H](C)NC(=O)[C@H](Cc2ccc(O)cc2)NC(=O)CNC(=O)[C@H](C)N(C)C(=O)C[C@@H](C(=O)N2CCCC2)NC(=O)[C@H](Cc2c[nH]c3ccccc23)NC1=O) [PP2]", 17.6),
]
